measured parameter: CO2 permeability (Barrer)

[I] *c1ccc(-c2ccc(Oc3ccc(C4(c5ccc(Oc6ccc(-c7ccc(N8C(=O)c9ccc(C(c%10ccc%11c(c%10)C(=O)N(*)C%11=O)(C(F)(F)F)C(F)(F)F)cc9C8=O)cc7)cc6C(F)(F)F)cc5)c5ccccc5C(=O)N4c4ccccc4)cc3)c(C(F)(F)F)c2)cc1 (repeat unit)
[II] *c1cc2c(cc1C)-c1cc(C)c(N3C(=O)c4cc5c(cc4C3=O)S(=O)(=O)c3cc4c(cc3S5(=O)=O)C(=O)N(*)C4=O)cc1S2(=O)=O (repeat unit)
Input line: Could you point out whether the larger CO2 permeability belongs to I or to II ? Field: selected label. Fill in the label of the entry you choose.
Output line: I

###

measured parameter: CO2 permeability (Barrer)

Here are 4 compounds together with their reported answers.
compound	value observed
*CC(*)(C)C(=O)OC(C)(C)C (repeat unit)	15.1
*c1c(C)cc(-c2cc(C)c(N3C(=O)c4cc5c(cc4C3=O)C3(C(C)C)c4ccccc4C5(C(C)C)c4cc5c(cc43)C(=O)N(*)C5=O)c3ccccc23)c2ccccc12 (repeat unit)	2910
*C(F)(F)C1(F)OC(F)(F)C(F)(F)C1(F)C(*)(F)F (repeat unit)	35
*c1ccc(Cc2ccc(N3C(=O)c4ccc(C(c5ccc6c(c5)C(=O)N(*)C6=O)(C(F)(F)F)C(F)(F)F)cc4C3=O)cc2)cc1 (repeat unit)	15.2

[A] *c1ccc2c(-c3c(OC(C)=O)ccc4cc(N5C(=O)c6ccc(Oc7ccc8c(c7)C(=O)N(*)C8=O)cc6C5=O)ccc34)c(OC(C)=O)ccc2c1 (repeat unit)
[B] *c1cccc(Oc2ccc(C(c3ccc(Oc4cccc(N5C(=O)c6ccc(C(c7ccc8c(c7)C(=O)N(*)C8=O)(C(F)(F)F)C(F)(F)F)cc6C5=O)c4)cc3)(C(F)(F)F)C(F)(F)F)cc2)c1 (repeat unit)
Input line: Could you point out whether the larger CO2 permeability belongs to A or to B ? Field: selected label. Fill in the label of the entry you choose.
Output line: B
(B: 6 Barrer, A: 2.38 Barrer)

###

measured parameter: H2 permeability (Barrer)

Here are 5 molecules together with their reported answers.
molecule	H2 permeability (Barrer)
*C(=C(*)c1ccc2c(ccc3ccccc32)c1)c1ccccc1 (repeat unit)	2500
*c1cc(C(c2ccc(O)c(N3C(=O)c4ccc(C(c5ccc6c(c5)C(=O)N(*)C6=O)(C(F)(F)F)C(F)(F)F)cc4C3=O)c2)(C(F)(F)F)C(F)(F)F)ccc1O (repeat unit)	35
*c1cccc(-c2cc(C)c(-c3cccc(*)c3C)cc2C)c1C (repeat unit)	210
*C(C)=C(*)CCC (repeat unit)	160
*C(C(=O)OC(C)CC(C)C)C(*)C(=O)OC(C)(C)C (repeat unit)	169

[P] *c1ccc(Cc2ccc(N3C(=O)c4ccc(S(=O)(=O)c5ccc6c(c5)C(=O)N(*)C6=O)cc4C3=O)cc2)cc1 (repeat unit)
[Q] *c1ccc2c(c1C)N1Cc3ccc(N4C(=O)c5ccc(C(c6ccc7c(c6)C(=O)N(*)C7=O)(C(F)(F)F)C(F)(F)F)cc5C4=O)c(C)c3N(C2)C1 (repeat unit)
[R] *C(=O)c1ccc([Si](C)(C)c2ccc(C(*)=O)cc2)cc1 (repeat unit)
Input line: Please give the order of these molecules when sorted by H2 permeability, largest value leading. # respond with the labels, arranged in the requested order
Output line: Q, R, P
(Q: 322 Barrer, R: 27.1 Barrer, P: 6.32 Barrer)

The reported numbers originate from a polymer gas permeability compilation.
